experimentalSystem: human SGLT2 (Homo sapiens (Human), UniProt P31639)
Sequence (P31639 whole entry): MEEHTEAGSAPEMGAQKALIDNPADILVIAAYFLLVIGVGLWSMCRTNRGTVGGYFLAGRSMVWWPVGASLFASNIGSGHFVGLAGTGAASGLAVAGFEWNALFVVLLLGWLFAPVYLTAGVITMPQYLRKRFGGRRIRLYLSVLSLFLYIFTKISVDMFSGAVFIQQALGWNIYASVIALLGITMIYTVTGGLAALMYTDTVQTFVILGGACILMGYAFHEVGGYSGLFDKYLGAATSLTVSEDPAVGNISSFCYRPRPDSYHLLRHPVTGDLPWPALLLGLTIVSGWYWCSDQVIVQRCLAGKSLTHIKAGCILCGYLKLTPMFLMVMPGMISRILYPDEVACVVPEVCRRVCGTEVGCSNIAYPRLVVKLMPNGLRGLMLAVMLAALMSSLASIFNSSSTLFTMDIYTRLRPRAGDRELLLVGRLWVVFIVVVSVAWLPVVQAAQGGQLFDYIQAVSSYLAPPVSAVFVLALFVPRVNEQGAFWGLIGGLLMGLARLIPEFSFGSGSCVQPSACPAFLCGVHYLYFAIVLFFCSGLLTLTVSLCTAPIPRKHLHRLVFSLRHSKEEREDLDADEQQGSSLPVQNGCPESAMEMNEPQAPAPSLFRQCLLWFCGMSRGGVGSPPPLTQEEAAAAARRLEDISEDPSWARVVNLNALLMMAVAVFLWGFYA
protocol: SGLT2 functional assay: inhibition of AMG uptake in CHO-FlpIn cells stably expressing human SGLT2
Assay type: cell-based
conditionDetails: ** final concentration of 200 microM AMG; read-out: hSGLT2 IC50
propertyName: IC50 (nM)
Give the value in nM but do not write nM after it.

Consider the molecule `OC[C@@]12CO[C@@](c3ccc(Cl)c(Cc4ccc(O)cc4)c3)(O1)[C@H](O)[C@@H](O)[C@@H]2O` and give its measured IC50.
2.6
